tgt: ProfilerPro Kinase Selectivity Assay Kit kinases (Homo sapiens)
Format: biochemical
experimental setup: cMET; 1 μM compound concentration
readout type: POC (Percent of control) cMET (POC)
Value expressed in POC; do not type the unit.

compound	POC (Percent of control) cMET, POC
CCc1cnc(Nc2ccc(OC)nc2)c(-c2nc(C)nc3[nH]cnc23)c1 [Example 74]	102
COc1ccc(Nc2ncccc2-c2nc(C)nc3[nH]cnc23)cn1 [Example 58]	103
Cc1nc(N)nc(-c2cc(CN3CCN(S(C)(=O)=O)CC3)cnc2Nc2cccc(O)c2)n1 [Example 30]	101
Cc1cnc(Nc2cccc3[nH]ncc23)c(-c2nc(C)nc(N)n2)c1 [Example 47]	102
Cc1nc(N)nc(-c2cccnc2Nc2cccc3[nH]ccc23)n1 [Example 22]	106

Q: Would you kindly share the measured POC (Percent of control) cMET for Cc1nc(N)cc(-c2cccnc2Nc2cccc3[nH]ncc23)n1 [Example 27] ?
Ans: 95

----------
Test system: phosphorylation of Akt at Serine 473 in U87 MG cells
assay overview: cells
experimental setup: Homo sapiens, U-87 MG, 2 h, read-out: U87Cell IC50, pAkt (Ser 473), U87 MG cells, two hours with compound
Threshold 100 nM: IC50 strictly smaller gives MET, otherwise NOT MET.

Consider the worked cases shown below.
molecule	qualitative label
CCOc1ccc(Nc2ncccc2-c2nc(C)nc(N)n2)cn1	NOT MET
COc1ccc(Nc2ncc(CN3CCN(S(C)(=O)=O)CC3)cc2-c2nc(C)nc3[nH]cnc23)cn1	NOT MET
COCCNc1cnc(Nc2ccc(OC)nc2)c(-c2nc(C)nc3[nH]cnc23)c1	NOT MET

Q: Determine whether this molecule shows IC50 lower than 100 nM (ties excluded): COc1ccc(Nc2ncc(CNc3ccncc3)cc2-c2nc(C)nc3[nH]cnc23)cn1
Ans: NOT MET

Q: Next entry: Cc1nc(N)nc(-c2cc(C(C)N3CCOCC3)cnc2Nc2cnc(Cl)c(NS(C)(=O)=O)c2)n1 (stereo not drawn)
Ans: MET

Q: Next entry: CC(=O)Nc1ccc(Nc2ncccc2-c2nc(C)nc3[nH]cnc23)cc1Cl
Ans: NOT MET

----------
tgt: ProfilerPro Kinase Selectivity Assay Kit kinases (Homo sapiens, UniProt P00519)
Assay type: biochemical
experimental setup: ABL; 1 μM compound concentration
Threshold 100 POC: POC (Percent of control) ABL strictly smaller gives label 1, otherwise label 0.

Consider the worked cases shown below.
molecule	qualitative label
COc1ccc(Nc2ncc(CN3CCN(C(C)=O)CC3)cc2-c2nc(C)nc3[nH]cnc23)cn1 [Example 89]	label 0
c1cnc(Nc2cccc3[nH]ccc23)c(-c2ncnc3[nH]cnc23)c1 [Example 19]	label 1
COc1ccc(Nc2ncc(Cc3ccc(S(C)(=O)=O)cc3)cc2-c2nc(C)nc3[nH]cnc23)cn1 [Example 103]	label 1
c1cnc(Nc2cccc3[nH]ncc23)c(-c2ncnc3[nH]cnc23)c1 [Example 18]	label 1

Q: Determine whether this molecule shows POC (Percent of control) ABL lower than 100 POC (ties excluded): Cc1nc(-c2cccnc2Nc2cccc3[nH]ncc23)c2nc[nH]c2n1 [Example 57]
Ans: label 1

Q: Next entry: Cc1nc(N)cc(-c2cccnc2Nc2cccc3[nH]ncc23)n1 [Example 27]
Ans: label 0

Q: Next entry: Cc1cnc(Nc2cccc3[nH]ncc23)c(-c2nc(C)nc(N)n2)c1 [Example 47]
Ans: label 1
